Tgt: T1, CD3 on primary human pan T cells (human, UniProt P07766 23-207)
T1 construct: on cells it stands in the TCR/CD3 complex; also called Pan T-cells (CD3-positive); endogenous CD3
Assay Notes: flow cytometry, pan T-cells
Label yes (1) when % Binding retained on T-cells, 60° C. >= 1 fraction; otherwise no (0).

Some solved entries appear below for comparison.
CD3B2082 (scFv) scFv: QVQLVQSGAEVKKPGSSVKVSCKASGYTFTRSTMHWVRQAPGQGLEWMGYINPSSAYTNYAQKFQGRVTLTADKSTSTAYMELSSLRSEDTAVYYCASPQVHYDYNGFPYWGQGTLVTVSSGGSEGKSSGSGSESKSTGGSEIVLTQSPATLSASPGERVTLSCSASSSVSYMNWYQQKPGTSPRRWIYDSSKLASGVPARFSGSGSGRDYTLTISSLEPEDFAVYYCQQWSRNPPTFGGGTKVEIK :: no (0)
CD3B2088 (scFv) scFv: QVQLVQSGAEVKKPGSSVKVSCKASGYTFTRSTMHWVRQAPGQGLEWMGYINPSSAYTNYAQKFQGRVTLTADKSTSTAYMELSSLRSEDTAVYYCASPQVHYDYNGFPYWGQGTLVTVSSGGSEGKSSGSGSESKSTGGSEIVLTQSPATLSASPGERVTLSCSASSSVSYMNWYQQKPGQSPRRWIYDSSKLASGVPARFSGSGSGRDYTLTISSLEPEDFAVYYCQQWSRNPPTFGGGTKVEIK :: no (0)
CD3B2072 (scFv) scFv: QVQLVQSGAEVKKPGSSVKVSCKASGYTFTRSTMHWVRQAPGQGLEWMGYINPSSAYTNYNQKFQGRVTLTADKSTSTAYMELSSLRSEDTAVYYCASPQVHYDYNGFPYWGQGTLVTVSSGGSEGKSSGSGSESKSTGGSEIVLTQSPATLSASPGERVTLSCSASSSVSYMNWYQQKPGQSPRRWIYDSSKLASGVPARFSGSGSGRDYTLTISSLEPEDFAVYYCQQWSRNPPTFGGGTKVEIK :: yes (1)
CD3B2077 (scFv) scFv: QVQLVQSGAEVKKPGSSVKVSCKASGYTFTRSTMHWVRQAPGQGLEWIGYINPSSAYTNYAQKFQGRVTLTADKSTSTAYMELSSLRSEDTAVYYCASPQVHYDYNGFPYWGQGTLVTVSSGGSEGKSSGSGSESKSTGGSEIVLTQSPATLSASPGERVTLSCSASSSVSYMNWYQQKPGTAPRRWIYDSSKLASGVPARFSGSGSGRDYTLTISSLEPEDFAVYYCQQWSRNPPTFGGGTKVEIK :: yes (1)
CD3B2064 (scFv) scFv: QVQLVQSGAEVKKPGSSVKVSCKASGYTFTRSTMHWVKQAPGQGLEWIGYINPSSAYTNYAQKFQGRVTLTADKSTSTAYMELSSLRSEDTAVYYCASPQVHYDYNGFPYWGQGTLVTVSSGGSEGKSSGSGSESKSTGGSEIVLTQSPATLSASPGERVTLSCSASSSVSYMNWYQQKPGQSPRRWIYDSSKLASGVPARFSGSGSGRDYTLTISSLEPEDFAVYYCQQWSRNPPTFGGGTKVEIK :: no (0)

Threshold query (% Binding retained on T-cells, 60° C. >= 1 fraction) on CD3B2085 (scFv) scFv: QVQLVQSGAEVKKPGSSVKVSCKASGYTFTRSTMHWVRQAPGQGLEWMGYINPSSAYTNYAQKFQGRVTLTADKSTSTAYMELSSLRSEDTAVYYCASPQVHYDYNGFPYWGQGTLVTVSSGGSEGKSSGSGSESKSTGGSEIVLTQSPATLSASPGERVTLSCSASSSVSYMNWYQQKPGTAPRRWIYDSSKLASGVPARFSGSGSGRDYTLTISSLEPEDFAVYYCQQWSRNPPTFGGGTKVEIK no (0)

Threshold query (% Binding retained on T-cells, 60° C. >= 1 fraction) on CD3B2089 (scFv) scFv: QVQLVQSGAEVKKPGSSVKVSCKASGYTFTRSTMHWVRQAPGQGLEWMGYINPSSAYTNYAQKFQGRVTLTADKSTSTAYMELSSLRSEDTAVYYCASPQVHYDYNGFPYWGQGTLVTVSSGGSEGKSSGSGSESKSTGGSEIVLTQSPATLSASPGERVTLSCSASSSVSYMNWYQQKPGQAPRRWIYDSSKLASGVPARFSGSGSGRDYTLTISSLEPEDFAVYYCQQWSRNPPTFGGGTKVEIK no (0)

Threshold query (% Binding retained on T-cells, 60° C. >= 1 fraction) on CD3B2065 (scFv) scFv: QVQLVQSGAEVKKPGSSVKVSCKASGYTFTRSTMHWVKQAPGQGLEWIGYINPSSAYTNYAQKFQGRVTLTADKSTSTAYMELSSLRSEDTAVYYCASPQVHYDYNGFPYWGQGTLVTVSSGGSEGKSSGSGSESKSTGGSEIVLTQSPATLSASPGERVTLSCSASSSVSYMNWYQQKPGQAPRRWIYDSSKLASGVPARFSGSGSGRDYTLTISSLEPEDFAVYYCQQWSRNPPTFGGGTKVEIK yes (1)

Threshold query (% Binding retained on T-cells, 60° C. >= 1 fraction) on CD3B2029 (scFv) scFv: QVQLVQSGAEVKKPGSSVKVSCKASGYTFTRSTMHWVKQAPGQGLEWIGYINPSSAYTNYNQKFQGRVTLTADKSTSTAYMELSSLRSEDTAVYYCASPQVHYDYNGFPYWGQGTLVTVSSGGSEGKSSGSGSESKSTGGSEIVLTQSPATLSASPGERVTLSCSASSSVSYMNWYQQKPGQSPRRWIYDSSKLASGVPARFSGSGSGRDYTLTISSLEPEDFAVYYCQQWSRNPPTFGGGTKVEIK yes (1)
